Biological target: FZD5 (Homo sapiens)
Construct: purchased Promega (in-house HiBiT-GPCR construct library, NanoBRET)
Sequence (Q13467 27-585): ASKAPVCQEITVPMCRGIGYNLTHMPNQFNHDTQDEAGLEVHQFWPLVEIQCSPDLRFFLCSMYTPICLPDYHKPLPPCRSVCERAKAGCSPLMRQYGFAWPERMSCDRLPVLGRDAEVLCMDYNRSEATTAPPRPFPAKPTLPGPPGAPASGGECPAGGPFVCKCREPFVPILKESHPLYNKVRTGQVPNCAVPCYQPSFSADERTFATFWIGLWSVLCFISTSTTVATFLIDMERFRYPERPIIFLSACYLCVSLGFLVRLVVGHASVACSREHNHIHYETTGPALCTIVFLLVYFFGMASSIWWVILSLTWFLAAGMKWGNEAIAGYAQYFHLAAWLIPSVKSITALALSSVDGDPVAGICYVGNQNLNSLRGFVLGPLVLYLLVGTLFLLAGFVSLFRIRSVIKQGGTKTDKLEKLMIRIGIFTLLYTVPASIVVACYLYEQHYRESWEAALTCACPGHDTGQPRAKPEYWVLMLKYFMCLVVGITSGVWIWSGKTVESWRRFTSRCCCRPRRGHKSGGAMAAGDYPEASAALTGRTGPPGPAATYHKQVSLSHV
Test: NanoBRET screen HiBiT-FZD5 in HEK293
Assay type: binding
Settings: FZD5; tracer 0.1μM
Description: Each tracer candidate was screened across the entire library of HiBiT-GPCR constructs using NanoBRET as the detection modality. As depicted in Figure 4A, the specificity of interactions was evaluated through decrease in BRET due to competitive displacement of a bound tracer by excess parental compound. Each tracer was analyzed for binding to each HiBiT-GPCR fusion in the absence and in the presence of competing parental compound. […]
property-label: NanoBRET Fold Response

Some molecules with recorded NanoBRET Fold Response:
Look up and report measured NanoBRET Fold Response for this entry: CC(C)N(CC[C@H](c1ccccc1)c1cc(CCNC(=O)c2ccc(CNC(=O)CCc3ccc4n3[B-](F)(F)[N+]3=C(c5ccc[nH]5)C=CC3=C4)cc2)ccc1O)C(C)C 1.12

Look up and report measured NanoBRET Fold Response for this entry: N#CN=C(NCCCOc1cccc(CN2CCCCC2)c1)NCCNC(=O)CCOCCOCCOCCOCCNC(=O)CCc1ccc2n1[B-](F)(F)[N+]1=C(c3ccc[nH]3)C=CC1=C2 1.06

Look up and report measured NanoBRET Fold Response for this entry: COc1ccccc1N1CCN(CCCCN2C(=O)c3ccc(CNC(=O)CCOCCOCCOCCOCCNC(=O)CCc4ccc5n4[B-](F)(F)[N+]4=C(c6ccc[nH]6)C=CC4=C5)cc3C2=O)CC1 0.97

Look up and report measured NanoBRET Fold Response for this entry: CC(C)N(CC[C@H](c1ccccc1)c1cc(CCNC(=O)CCOCCOCCOCCOCCNC(=O)CCc2ccc3n2[B-](F)(F)[N+]2=C(c4ccc[nH]4)C=CC2=C3)ccc1O)C(C)C 0.87

Look up and report measured NanoBRET Fold Response for this entry: COc1ccccc1N1CCN(CCCCN2C(=O)c3ccc(CNC(=O)CCOCCNC(=O)c4ccc(CNC(=O)CCc5ccc6n5[B-](F)(F)[N+]5=C(c7ccc[nH]7)C=CC5=C6)cc4)cc3C2=O)CC1 0.97

Here is the next item to consider.
Look up and report measured NanoBRET Fold Response for this entry: Cc1nc2n(c(=O)c1CCN1CCC(c3noc4cc(F)ccc34)CC1)CCCC2OC(=O)NCCOCCOCCOCCOCCNC(=O)CCc1ccc2n1[B-](F)(F)[N+]1=C(c3ccc[nH]3)C=CC1=C2 (stereo not drawn) 0.95

----------
Target: CCR2 (Homo sapiens, UniProt P41597)
Construct: purchased Promega (in-house HiBiT-GPCR construct library, NanoBRET)
Sequence (P41597 whole entry): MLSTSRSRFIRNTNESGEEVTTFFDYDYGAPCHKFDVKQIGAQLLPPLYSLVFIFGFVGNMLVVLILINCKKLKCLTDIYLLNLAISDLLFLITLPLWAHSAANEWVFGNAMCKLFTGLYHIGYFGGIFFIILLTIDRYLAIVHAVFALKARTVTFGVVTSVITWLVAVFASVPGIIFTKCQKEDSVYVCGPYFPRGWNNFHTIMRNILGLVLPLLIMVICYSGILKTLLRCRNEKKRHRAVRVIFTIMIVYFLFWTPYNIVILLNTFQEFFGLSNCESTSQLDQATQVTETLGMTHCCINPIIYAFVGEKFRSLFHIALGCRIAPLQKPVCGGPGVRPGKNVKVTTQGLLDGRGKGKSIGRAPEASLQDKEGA
Assay: NanoBRET screen HiBiT-CCR2 in HEK293
Type: binding
Conditions: CCR2; tracer 1μM
property-label: NanoBRET Fold Response

Some compounds with recorded NanoBRET Fold Response:
Look up and report measured NanoBRET Fold Response for this entry: N#CN=C(NCCCOc1cccc(CN2CCCCC2)c1)NCCNC(=O)CCOCCOCCOCCOCCNC(=O)CCc1ccc2n1[B-](F)(F)[N+]1=C(c3ccc[nH]3)C=CC1=C2 [Aminopotentidine-2-NB590] 0.98

Look up and report measured NanoBRET Fold Response for this entry: CCCn1c(=O)c2[nH]c(-c3ccc(OCC(=O)NCCNC(=O)CCOCCNC(=O)c4ccc(CNC(=O)CCc5ccc6n5[B-](F)(F)[N+]5=C(c7ccc[nH]7)C=CC5=C6)cc4)cc3)nc2n(CCC)c1=O [XAC-3-NB590] 1.61

Look up and report measured NanoBRET Fold Response for this entry: O=C(CCOCCOCCOCCOCCNC(=O)CCc1ccc2n1[B-](F)(F)[N+]1=C(c3ccc[nH]3)C=CC1=C2)NCCCN1CCN(C2=Nc3ccccc3Oc3ccc(Cl)cc32)CC1 [Loxapine-a-2-NB590] 0.81

Continuing:
Look up and report measured NanoBRET Fold Response for this entry: CC(C)N(CC[C@H](c1ccccc1)c1cc(CCNC(=O)c2ccc(CNC(=O)CCc3ccc4n3[B-](F)(F)[N+]3=C(c5ccc[nH]5)C=CC3=C4)cc2)ccc1O)C(C)C [Tolterodine-BZ-NB590] 0.89

Look up and report measured NanoBRET Fold Response for this entry: Cc1cc2c(s1)Nc1ccccc1N=C2N1CCN(CCCNC(=O)CCOCCOCCOCCOCCNC(=O)CCc2ccc3n2[B-](F)(F)[N+]2=C(c4ccc[nH]4)C=CC2=C3)CC1 [Olanzapine-a-2-NB590] 0.59
